Let's look at some molecules and their measured pIC50.
System: Aβ42
Test: Screening for γ-secretase-modulating activity, Method 1: Aβ42 sandwich ELISA in supernatant of SKNBE2 cells carrying APP 695 wild type (Tables 12a, 12b)
Type: cell-based
Conditions: Homo sapiens; Table 12b; Method 1, SKNBE2 cells carrying APP 695 wild type, cell supernatant ELISA; averaged IC50 values, percentage of control vs log concentration
pIC50 (log units): -log10 of the concentration in mol/L.

Guide cases for pIC50, answers given:
COc1cc(Nc2cccn3cc(-c4ccc(N5CCOCC5)cc4)nc23)ccc1-n1cnc(C)c1; 7.25
COc1cccc(-c2nc3c(Nc4ccc(-n5ccnc5)c(OC)c4)cccn3c2C)c1; 7.72
Cc1cn2cccc(Nc3ccc(-n4cnc(C)n4)cc3)c2n1; 5.02
COc1cc(Nc2cccn3cc(C)nc23)ccc1-n1cnc(C)n1; 5.36

# ---- query molecule ----
Determine its reported pIC50: COc1cc(Nc2cc(C(F)(F)F)cn3cc(CO)nc23)ccc1-n1cnc(C)n1
5.75

###

Tested on: Aβ42
Experiment: Demonstration of in vivo efficacy: Aβ42 lowering in brain after single oral dose (Table 13)
Details: mouse brain soluble fraction, ELISA, mean, compared to untreated animals
Please enter class 1 where Aβ42 (% Ctrl)_Mean is greater than or equal to 80 % Ctrl, and class 0 where it is lower.

Record excerpt, results attached:
Cc1ncn(-c2ccc(Nc3cccn4c(C)c(-c5ccccc5Cl)nc34)nc2)n1; class 1
COc1cccc(-c2nc3c(Nc4ccc(-n5cnc(C)c5)c(OC)c4)cccn3c2C)c1; class 0
Cc1ncn(-c2ccc(Nc3cccn4cc(-c5ccccc5C)nc34)cn2)n1; class 1

Confirm if Aβ42 (% Ctrl)_Mean reported for the compound COc1cc(Nc2cccn3c(C)c(-c4ccc(F)cc4F)nc23)ccc1-n1cnc(C)c1 is 80 % Ctrl or above.
class 0

For this compound, is measured Aβ42 (% Ctrl)_Mean 80 % Ctrl or higher? Cc1ncn(-c2ccc(Nc3cccn4cc(-c5ccccc5C)nc34)cc2)n1
class 1

Say whether COc1cc(Nc2cccn3cc(-c4ccc(F)cc4)nc23)ccc1-n1cnc(C)c1 shows Aβ42 (% Ctrl)_Mean of 80 % Ctrl or more.
class 0

###

Entries and their pIC50
Tested on: Aβ42
Test: Screening for γ-secretase-modulating activity, Method 1: Aβ42 sandwich ELISA in supernatant of SKNBE2 cells carrying APP 695 wild type (Tables 12a, 12b)
Assay type: cell-based
Details: Homo sapiens; Table 12b; Method 1, SKNBE2 cells carrying APP 695 wild type, cell supernatant ELISA; averaged IC50 values, percentage of control vs log concentration
Conceptually, pIC50 converts a concentration in mol/L into minus its log10.

Take a look at these entries with their results.
Cc1ccc(C(F)(F)F)cc1-c1cn2cccc(Nc3ccc(-n4ncnc4C)cc3)c2n1 [Compound 75]; 6.90
COc1cc(Nc2cccn3ccnc23)ccc1-n1cnc(C)c1 [Compound 49]; 6.39
COc1cc(Nc2cccn3c(-c4cccc(-c5ccccc5)c4)cnc23)ccc1-n1cnc(C)c1 [Compound 61]; 6.36
COc1cccc(-c2nc3c(Nc4ccc(-n5cnc(C)c5)c(F)c4)cccn3c2C)c1 [Compound 66]; 7.12
Cc1ncn(-c2ccc(Nc3cccn4c(C)c(-c5ccccc5Cl)nc34)c(F)c2)n1 [Compound 133]; 6.33

Tell me its pIC50 given COc1cccc(-c2nc3c(Nc4ccc(-n5cnc(C)c5)c(OC)c4)cccn3c2C)c1 [Compound 34] as the entry.
8.05

// fetch pIC50 given entry COc1cc(Nc2cccn3cc(-c4ccc(C(F)(F)F)cc4)nc23)ccc1-n1cnc(C)c1 [Compound 30]
7.35
